Values compiled from patent US20260297042A1.

- assayed-target: WEE1 (Homo sapiens, UniProt P30291)
- Construct: purchased Thermo Fisher PR7373A
- Sequence (P30291 whole entry): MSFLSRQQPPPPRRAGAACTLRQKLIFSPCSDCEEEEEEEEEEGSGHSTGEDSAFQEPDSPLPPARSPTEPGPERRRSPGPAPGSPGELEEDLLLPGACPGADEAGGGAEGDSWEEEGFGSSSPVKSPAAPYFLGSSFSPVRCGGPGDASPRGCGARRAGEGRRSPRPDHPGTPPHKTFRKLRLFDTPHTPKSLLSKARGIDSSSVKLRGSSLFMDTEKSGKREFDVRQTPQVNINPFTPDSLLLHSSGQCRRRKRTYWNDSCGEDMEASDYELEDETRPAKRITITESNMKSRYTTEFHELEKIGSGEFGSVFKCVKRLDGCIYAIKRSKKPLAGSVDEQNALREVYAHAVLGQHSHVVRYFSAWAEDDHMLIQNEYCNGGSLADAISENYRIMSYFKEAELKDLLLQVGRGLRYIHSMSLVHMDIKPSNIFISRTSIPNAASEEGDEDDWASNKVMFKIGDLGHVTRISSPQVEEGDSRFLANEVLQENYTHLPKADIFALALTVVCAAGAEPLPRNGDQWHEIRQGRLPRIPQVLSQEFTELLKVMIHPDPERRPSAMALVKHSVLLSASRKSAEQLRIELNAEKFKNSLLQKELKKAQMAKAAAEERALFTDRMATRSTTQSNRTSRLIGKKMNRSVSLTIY
- method-summary: Selectivity versus WEE1 assay (ADP-Glo enzymatic assay)
- Format: biochemical
- condition-set: ADP-Glo; 15 nM WEE1, 60 minutes at 26° C.; banded
metric-name: IC50

Solved entries:
COCC(=O)N1CC[C@@H](n2ccc(Nc3ncc(C(=O)Nc4c(C)ccc(O)c4C)s3)n2)C1; > 11 µM
COCCOCCNC(=O)Cn1ccc(Nc2ncc(C(=O)Nc3c(C)ccc(O)c3C)s2)n1; > 11 µM

For the next question, use this compound.
Task: What IC50 value was documented for this compound, Cc1ccc(O)c(C)c1NC(=O)c1cnc(NCc2cc3ccccc3[nH]2)s1 ?
Output: > 11 µM
